All figures here come from ChEMBL document CHEMBL1201862.

System: SNB-75
method-notes: NCI tumour cell line growth inhibition, 48 h
Activity calls are given as the source filed them. Rule as the data show it: active = GI50 up to about 1.1 µM and inactive = higher.
Write down the outcome that applies. Available outcomes: class 1 for active, class 0 for inactive

Answered examples (2):
- O=C1C(CN2CCOCC2)CCCC1CN1CCOCC1 (centres undefined): class 0
- COc1ccc(CC2OC3(CCCCC3)CC3CCCCN32)cc1 (centres undefined): class 0

Each compound tested received a call. Report the one for C/C(=N\NC(=S)N(C)C)c1ccccn1 . class 1

Each compound tested received a call. Report the one for CC1=C(OC2OC(CO)C(O)C(O)C2O)C(=O)C[C@H]2C1=CC[C@@H]1[C@@]2(C)C(=O)C[C@]2(C)[C@@H]([C@@](C)(O)C(=O)CCC(C)(C)O)[C@H](O)C[C@@]12C (some centres undefined) . class 0

---

Tested on: MOLT-4
method-notes: NCI tumour cell line growth inhibition, 48 h
Active and inactive are the calls of the source. Cut-off read from the data, not from the text of the source: active = GI50 up to about 1.1 µM and inactive = higher.
Write down the outcome that applies. Available outcomes: active, inactive

Answered examples (5):
- CC(=O)N1CCN(C=S)CC1: inactive
- O=C(O)CCCN/C(=C1\C(=O)C(=O)N(c2ccccc2)C1=O)c1ccccc1: inactive
- CCCCCCCCCCCCCCCCSCC(COC)COP(=O)([O-])OCC[N+](C)(C)C (stereo not given): inactive
- CC(=O)N1N=C(c2ccc3ccccc3c2O)CC1C(=O)c1ccco1 (stereo not given): inactive
- Cc1c(-c2coc(-c3ccc([N+](=O)[O-])cc3)n2)c(=O)n(-c2ccccc2)n1C: inactive

Each molecule tested received a call. Report the one for Cn1c2ccccc2c2c(=S)c3ccccc3ccc21 . inactive

Each molecule tested received a call. Report the one for O=c1[nH]nc(Cc2ccccc2)n1/N=C/c1ccccc1O . inactive

Each molecule tested received a call. Report the one for O=P1(c2ccccc2)c2ccccc2-c2ccccc21 . inactive

Each molecule tested received a call. Report the one for CC(=O)NNc1nc(C)c(C(=O)NNC(=O)C(=O)Nc2c(C)cccc2C)s1 . inactive

Each molecule tested received a call. Report the one for c1cc2c(c(-c3c4ccccc4nc4ccccc34)c1)CC1(CC2)OCCO1 . inactive

Each molecule tested received a call. Report the one for Cc1ccc(C(=O)NCCN(C)C)c2nc3ccccc3cc12 . active

Each molecule tested received a call. Report the one for COc1ccc(/C=C2\N=C(SC)NC2=O)cc1 . inactive

Each molecule tested received a call. Report the one for COc1ccccc1NC(=S)Nc1cc(C)ccn1 . inactive

Each molecule tested received a call. Report the one for N#CC(C(=O)CCC(=O)Nc1ccc(Cl)c(Cl)c1)c1ccc(Cl)cc1 (stereo not given) . inactive

Each molecule tested received a call. Report the one for CC(=O)c1c2c(cc3c1CCC3)CCC2 . inactive

Each molecule tested received a call. Report the one for Cn1nc2ccc3nccc(N4CCN(CCO)CC4)c3c2n1 . inactive

---

System: SF-539
method-notes: NCI tumour cell line growth inhibition, 48 h
Activity calls are given as the source filed them. No stated cut-off is given here; in the data, active = GI50 up to about 1.1 µM and inactive = higher.
reported-property: GI50

- O=C(O)CCCN/C(=C1\C(=O)C(=O)N(c2ccccc2)C1=O)c1ccccc1: 82 µM (inactive)
- O=C1c2ccccc2C(=O)c2c(O)c(NCCCNCCO)cc(O)c21: 9.38 µM (inactive)
- Nc1ccccc1.O=C(O)C(C(F)(F)F)C(F)(F)F: > 100 µM (inactive)
- CCOC(=O)c1nc2cc(C(F)(F)F)ccc2nc1Oc1ccc(C#N)cc1: > 100 µM (inactive)
- COC(=O)CC(=O)OC: > 100 µM (inactive)

State the recorded GI50 for every item in the following list.
1. COc1cc(C2SCC(=O)N2c2ccc(Oc3ccc(Cl)cc3)c(Cl)c2)cc(OC)c1OC (stereo not given)
2. CCCCNc1nc(NC2OCC(OC(C)=O)C(OC(C)=O)C2OC(C)=O)c(N=O)c(=O)n1C (stereo not given)
3. N#CC(C(=O)CCC(=O)Nc1ccc(Cl)c(Cl)c1)c1ccc(Cl)cc1 (stereo not given)
4. N=c1oc2c(Br)cc(Br)cc2cc1C(=O)Nc1ccccn1

22.8 µM (inactive)
> 10 µM (inactive)
> 100 µM (inactive)
31.8 µM (inactive)

State the recorded GI50 for every item in the following list.
1. CC/C=C/c1cc2cc[nH]c2c2c1C(C)C[C@@H]2C (stereo not given in full)
2. CC1(C)C(=O)/C=C\C(=O)C(C)(C)C(=O)/C=C\C(=O)C(C)(C)C2=CC=C(O2)C(C)(C)C(=O)/C=C\C1=O
3. COc1ccc(C(O)/C(=C/n2ccnc2)c2ccccc2)cc1OC (stereo not given)

1. 21.8 µM (inactive)
2. 9.62 µM (inactive)
3. > 100 µM (inactive)

State the recorded GI50 for every item in the following list.
1. CC(=O)OCC1OC(n2c3c(cc(C#N)c2=O)CCCCCC3)C(OC(C)=O)C(OC(C)=O)C1OC(C)=O (stereo not given)
2. O=C1Nc2cccc(Cl)c2/C1=C\c1c(Cl)nc2sccn12
3. C[C@]12CC[C@@H]3c4ccc(O)cc4CC[C@H]3[C@@H]1CC[C@@H]2OC(=O)CCC1CCCC1 [ESTRADIOL CYPIONATE]
4. CC(=O)N1N=C(c2ccc3ccccc3c2O)CC1C(=O)c1ccco1 (stereo not given)
5. O=C(Nc1ccccc1)c1nn(-c2cc(S(=O)(=O)O)c([N+](=O)[O-])cc2Cl)[n+](-c2cc(S(=O)(=O)[O-])c([N+](=O)[O-])cc2Cl)n1
6. CCC/C(Cl)=N/OC(NC(=O)OCC)(C(F)(F)F)C(F)(F)F
7. Nc1ncc2ncn(C3CCC(CO)O3)c2n1 (stereo not given)
8. CC1Cc2cc(O)c(O)cc2-c2cc(O)c(O)cc2CC1C (stereo not given)

> 100 µM (inactive)
5.2 µM (inactive)
18.8 µM (inactive)
26.1 µM (inactive)
> 100 µM (inactive)
16.7 µM (inactive)
> 100 µM (inactive)
5.85 µM (inactive)

---

System: SNB-19
method-notes: NCI tumour cell line growth inhibition, 48 h
The source made the active and inactive calls. Cut-off read from the data, not from the text of the source: active = GI50 up to about 1.1 µM and inactive = higher.
Exercise: for every item that follows, state its recorded GI50.

// known answers, use as guide
- CC(=O)O[C@H]1CCC2[C@@H]3CCC4Cc5nc6c(nc5C[C@]4(C)C3CC[C@@]21C)CC1CC[C@@H]2C(CC[C@@]3(C)C2CC[C@@H]3C(C)CCCC(C)C)[C@@]1(C)C6 (some centres undefined): > 100 µM (inactive)
- N#CC(C#N)=c1ccc(=C2NCC3CCCN23)cc1 (centres undefined): > 100 µM (inactive)
- Cc1ccc2c(c1)NC(=O)CC(c1ccccc1)=N2: > 100 µM (inactive)
- CC(=O)OCC1OC(n2c3c(cc(C#N)c2=O)CCCCCC3)C(OC(C)=O)C(OC(C)=O)C1OC(C)=O (centres undefined): > 100 µM (inactive)
- Cc1cc(O)c(-c2cc(O)c(C)cc2O)cc1O: 18.9 µM (inactive)

State the recorded GI50 for every item in the following list.
1. Nc1ccccc1.O=C(O)C(C(F)(F)F)C(F)(F)F
2. O=C1CCC2(CC1CCSc1ccccc1)OCCO2 (centres undefined)
3. CCOC(=O)c1[nH]c2c(OC)n[n+]([O-])cc2c1[N+](=O)[O-]
4. COc1ccccc1/C=C\C(=O)C1COCN1 (centres undefined)

1: > 100 µM (inactive); 2: > 100 µM (inactive); 3: 25.6 µM (inactive); 4: 13.1 µM (inactive)

---

Exercise: for every item that follows, state its recorded GI50.
Tested on: LXFL 529
method-notes: NCI tumour cell line growth inhibition, 48 h
Active and inactive are the calls of the source. Cut-off read from the data, not from the text of the source: active = GI50 up to about 1.1 µM and inactive = higher.

// known answers, use as guide
• CC(C)OCN/C(N)=N\C#N = > 100 µM (inactive)
• C[C@@H](NC1CCCC[C@@H]1O)c1ccccc1 (stereo partly drawn) = > 100 µM (inactive)
• Clc1ccc(C2=Nc3ccccc3SC(c3ccc(Cl)c(Cl)c3)C2)c(Cl)c1 (stereo not drawn) = 15.3 µM (inactive)
• C=C(CN(C)C)C(=O)c1ccccc1Cl = 12.5 µM (inactive)

State the recorded GI50 for every item in the following list.
1. CN(C)CCCN1CCc2c([nH]c3ccccc23)C1c1cccnc1 (stereo not drawn)
2. CCOC1=C2N=C(C(CC)c3ccc(F)cc3)N=C2C(=O)c2ccccc21 (stereo not drawn)
3. CC(=O)OCCC(O[Si](c1ccccc1)(c1ccccc1)C(C)(C)C)C(C)(C)O (stereo not drawn)
4. CC(C)(O)C(O)COc1c2c(cc3oc(=O)ccc13)OCO2 (stereo not drawn)
5. O=C(c1ccccc1)C1S(=O)(=O)OCCOS1(=O)=O
6. COc1ccc(C(=O)Nc2ccccc2)cc1[N+](=O)[O-]
7. C[C@H]1C(=O)CC[C@]2(C)CCC(C(C)(C)O)CC12O (stereo partly drawn)

["> 100 µM (inactive)", "23.9 µM (inactive)", "42.7 µM (inactive)", "> 100 µM (inactive)", "> 100 µM (inactive)", "> 100 µM (inactive)", "> 100 µM (inactive)"]

State the recorded GI50 for every item in the following list.
1. CN(C)CC(C)(C)/C(=N\Nc1ccccc1)c1ccccc1
2. O=C(O)CNS(=O)(=O)c1ccc(NC(=O)CI)cc1

1: 18.7 µM (inactive); 2: 6.97 µM (inactive)

State the recorded GI50 for every item in the following list.
1. CCOC(=O)c1[nH]c2c(OC)n[n+]([O-])cc2c1[N+](=O)[O-]
2. O=[N+]([O-])c1cc(C(F)(F)F)cc2n[se]nc12
3. O=c1[nH]c(=O)n(C2OC(CO)C(O)C2O)cc1OCC(F)(F)F (stereo not drawn)
4. CN(C(=O)C12C3C4C5C3C1(C(=O)C13C6C7C8C6C1C8C73)C5C42)C(C)(C)C (stereo not drawn)
5. O=C1c2ccccc2C(=O)c2c(O)c(NCCCNCCO)cc(O)c21

17.3 µM (inactive)
1.72 µM (inactive)
> 100 µM (inactive)
> 50 µM (inactive)
11.1 µM (inactive)
